assay: Cell viability of dendritic cells (CCK-8); assay type: cell-based, murine; conditions: mouse, dendritic cells (DCs), CCK-8, 37 °C, read-out: cytotoxicity against DCs, IC50
observable: IC50 at 24 h (µM)
Answers are plain numbers, in µM.

Find the recorded IC50 at 24 h belonging to `O=c1c(O)c(-c2ccc(O)c(O)c2)oc2cc(O)cc(O)c12` and report it. 78.8

====

system: human small cell lung cancer (H1688) cells; assay: Cytotoxicity MTT assay, H1688 cell line; assay type: cell-based; settings: 37 °C, 24 h, read-out: cytotoxicity toward H1688 cell line, IC50
observable: pIC50
Numbers only, as −log10 of the molar value.

Worked examples, 2 compounds total:
GET /values?readout=pIC50&item= COC1OC2C=C(C)CCC=C(C)CCC3OC3(C)CCC2=C1C (stereo not drawn) [compound 3, 16β-Methoxyisosarcophytoxide] 4.56

Could you tell me which pIC50 is on file for C=C[C@@](C)(Cl)[C@@H](Cl)/C=C/C(=C/Cl)C(Cl)Cl (relative stereo) ? 5.38

Now for a further compound.
Field request: pIC50 | item: COC1OC2C=C(C)CCC=C(C)CCC3OC3(C)CCC2=C1C (stereo not drawn) [compound 4, 16α-Methoxyisosarcophytoxide] 4.07
